- system.tested: GT1a R155K NS3/4A protease (UniProt P27958, R1181K, species not given)
- Type: biochemical, Hepatitis C virus
- condition.details: read-out: Ki (nM) R155K; Table 8; linear inhibitors
We begin with a simple list: items and their reported Ki.
I only need the number, in nM, no unit after it.

Worked cases, Ki given:
compound: C=C[C@@H]1C[C@]1(NC(=O)[C@@H]1C[C@@H](Oc2nc3cc(OC)ccc3nc2C(C)C)CN1C(=O)[C@@H](NC(=O)OC1CCCC1)C(C)(C)C)C(=O)NS(=O)(=O)C1(C)CC1 [Compound 12c]
unit.name: nM
Ki: 43
--
compound: C=C[C@@H]1C[C@]1(NC(=O)[C@@H]1C[C@@H](Oc2nc3cc(OC)ccc3nc2Cl)CN1C(=O)[C@@H](NC(=O)OC(C)(C)C)C(C)(C)C)C(=O)NS(=O)(=O)C1(C)CC1 [Compound 10d]
unit.name: nM
Ki: 3.8
--
compound: C=C[C@@H]1C[C@]1(NC(=O)[C@@H]1C[C@@H](Oc2nc3cc(OC)ccc3nc2CC)CN1C(=O)[C@@H](NC(=O)OC1CCCC1)C(C)(C)C)C(=O)NS(=O)(=O)C1(C)CC1 [Compound 12a]
unit.name: nM
Ki: 13
--
compound: CCc1nc2ccc(OC)cc2nc1O[C@@H]1C[C@H]2C(=O)N[C@]3(C(=O)NS(=O)(=O)C4CC4)C[C@H]3/C=C\CCCCC[C@H](NC(=O)OC(C)(C)C)C(=O)N2C1
unit.name: nM
Ki: 3.1

Now let's try a different one.
# return recorded Ki for input C=C[C@@H]1C[C@]1(NC(=O)[C@@H]1C[C@@H](Oc2nc3cc(OC)ccc3nc2C)CN1C(=O)[C@@H](NC(=O)OC(C)(C)C)C(C)(C)C)C(=O)NS(=O)(=O)C1CC1 8.5

====

- system.tested: GT3a NS3/4A protease (Hepatitis C virus genotype 3a, UniProt Q81495)
- Construct: drug-resistant variant D168A, and GT3a NS3/4A protease; made in house; host or cells: Escherichia coli BL21(DE3)
- Sequence (Q81495 1033-1214): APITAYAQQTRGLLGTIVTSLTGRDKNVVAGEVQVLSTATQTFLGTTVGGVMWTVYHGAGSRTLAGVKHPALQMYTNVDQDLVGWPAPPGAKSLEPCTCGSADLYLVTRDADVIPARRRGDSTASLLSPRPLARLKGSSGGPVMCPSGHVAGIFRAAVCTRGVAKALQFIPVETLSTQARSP
- assay.info: biochemical
Each entry below carries its recorded Ki.
Entry rule: numbers only, all in nM.

Worked set:
compound: COc1ccc2nc(C)c(O[C@@H]3C[C@H]4C(=O)N[C@]5(C(=O)NS(=O)(=O)C6CC6)C[C@H]5/C=C\CCCCC[C@H](NC(=O)OC(C)(C)C)C(=O)N4C3)nc2c1 [Compound 18b]
Ki, nM: 152
//
compound: COc1ccc2nc(Cl)c(O[C@@H]3C[C@H]4C(=O)N[C@]5(C(=O)NS(=O)(=O)C6(C)CC6)C[C@H]5/C=C\CCCCC[C@H](NC(=O)OC5CCCC5)C(=O)N4C3)nc2c1 [Compound 23c]
Ki, nM: 61

Now, please, on to the next compound.
Return Ki for the following compound: COc1ccc2nc(Cl)c(O[C@@H]3C[C@H]4C(=O)N[C@]5(C(=O)NS(=O)(=O)C6(C)CC6)C[C@H]5/C=C\CCCCC[C@H](NC(=O)OC(C)(C)C)C(=O)N4C3)nc2c1 [Compound 19c] 53.6

====

- Test system: HCV replicon D168V variant in Huh7 cells
- assay.info: microbe, parasite or virus in culture
- Type: cell-based, Hepatitis C virus
- condition.details: Hepatitis C virus, Huh-7, read-out: Replicon EC50 (nM) D168V, Table 9
Readings of EC50 for the listed molecules
Field: numeric (nM). Do not append units.

Study these solved cases before continuing.
molecule: C=C[C@@H]1C[C@]1(NC(=O)[C@@H]1C[C@@H](Oc2nc3cc(OC)ccc3nc2C)CN1C(=O)[C@@H](NC(=O)OC1CCCC1)C(C)(C)C)C(=O)NS(=O)(=O)C1CC1 [Compound 11b]
EC50, nM: 150
--
molecule: C=C[C@@H]1C[C@]1(NC(=O)[C@@H]1C[C@@H](Oc2nc3cc(OC)ccc3nc2Cl)CN1C(=O)[C@@H](NC(=O)OC1CCCC1)C(C)(C)C)C(=O)NS(=O)(=O)C1CC1 [Compound 11d]
EC50, nM: 54
--
molecule: CCc1nc2ccc(OC)cc2nc1O[C@@H]1C[C@H]2C(=O)N[C@]3(C(=O)NS(=O)(=O)C4CC4)C[C@H]3/C=C\CCCCC[C@H](NC(=O)OC(C)(C)C)C(=O)N2C1
EC50, nM: 9.1

Would you kindly look at the next entry?
State its EC50: C=C[C@@H]1C[C@]1(NC(=O)[C@@H]1C[C@@H]2CN1C(=O)[C@H](C(C)(C)C)NC(=O)O[C@@H]1C[C@H]1CCCCCc1nc3ccc(OC)cc3nc1O2)C(=O)NS(=O)(=O)C1CC1 [Compound 1, grazoprevir, reference compound] 5.3

====

- system.tested: GT1a D168A NS3/4A protease
- Format: biochemical, Hepatitis C virus
- condition.details: Table 6; with respect to GT1a wild-type
observation.type: Ki (Fold Change) D168A

Solved cases below.
smiles.data: COc1ccc2nc(C)c(O[C@@H]3C[C@H]4C(=O)N[C@]5(C(=O)NS(=O)(=O)C6(C)CC6)C[C@H]5/C=C\CCCCC[C@H](NC(=O)[C@@H](NC(C)=O)C(C)(C)C)C(=O)N4C3)nc2c1
Ki (Fold Change) D168A: (9) fold
//
smiles.data: COc1ccc2nc(C)c(O[C@@H]3C[C@H]4C(=O)N[C@]5(C(=O)NS(=O)(=O)C6(C)CC6)C[C@H]5/C=C\CCCCC[C@H](NC(=O)OC5(C)CCCC5)C(=O)N4C3)nc2c1
Ki (Fold Change) D168A: (9) fold
//
smiles.data: COC(=O)N[C@H](C(=O)N[C@H]1CCCCC/C=C\[C@@H]2C[C@@]2(C(=O)NS(=O)(=O)C2(C)CC2)NC(=O)[C@@H]2C[C@@H](Oc3nc4cc(OC)ccc4nc3C)CN2C1=O)C1CCCC1
Ki (Fold Change) D168A: (9) fold
//
smiles.data: COC(=O)N[C@H](C(=O)N[C@H]1CCCCC/C=C\[C@@H]2C[C@@]2(C(=O)NS(=O)(=O)C2(C)CC2)NC(=O)[C@@H]2C[C@@H](Oc3nc4cc(OC)ccc4nc3C)CN2C1=O)C(C)C
Ki (Fold Change) D168A: (8) fold

// moving on: another record for Ki (Fold Change) D168A
Provide one value: measured Ki (Fold Change) D168A of COC(=O)N[C@H](C(=O)N[C@H]1CCCCC/C=C\[C@@H]2C[C@@]2(C(=O)NS(=O)(=O)C2(C)CC2)NC(=O)[C@@H]2C[C@@H](Oc3nc4cc(OC)ccc4nc3C)CN2C1=O)C(C)(C)C (8) fold

====

- system.tested: GT1a R155K NS3/4A protease (UniProt P27958, R1181K, species not given)
- Format: biochemical, Hepatitis C virus
- condition.details: read-out: Ki R155K; R155K variant
Categorized via Ki: bottom range (below 10 nM), center range (10 nM to below 20 nM), top range (20 nM or more)

These solved cases illustrate the format of a correct answer.
compound: C=C[C@@H]1C[C@]1(NC(=O)[C@@H]1C[C@@H](Oc2nc3cc(OC)ccc3nc2C(C)C)CN1C(=O)[C@@H](NC(=O)OC1CCCC1)C(C)(C)C)C(=O)NS(=O)(=O)C1CC1 [Compound 11c]
label: top range
//
compound: C=C[C@@H]1C[C@]1(NC(=O)[C@@H]1C[C@@H](Oc2nc3cc(OC)ccc3nc2C(F)(F)F)CN1C(=O)[C@@H](NC(=O)OC(C)(C)C)C(C)(C)C)C(=O)NS(=O)(=O)C1(C)CC1 [Compound 10e]
label: center range
//
compound: C=C[C@@H]1C[C@]1(NC(=O)[C@@H]1C[C@@H](Oc2nc3cc(OC)ccc3nc2Cl)CN1C(=O)[C@@H](NC(=O)OC1CCCC1)C(C)(C)C)C(=O)NS(=O)(=O)C1(C)CC1 [Compound 12d]
label: bottom range
//
compound: C=C[C@@H]1C[C@]1(NC(=O)[C@@H]1C[C@@H](Oc2nc3cc(OC)ccc3nc2Cl)CN1C(=O)[C@@H](NC(=O)OC(C)(C)C)C(C)(C)C)C(=O)NS(=O)(=O)C1(C)CC1 [Compound 10d]
label: bottom range

API: the following record is the query input.
Assign a bin to C=C[C@@H]1C[C@]1(NC(=O)[C@@H]1C[C@@H](Oc2nc3cc(OC)ccc3nc2CC)CN1C(=O)[C@@H](NC(=O)OC1CCCC1)C(C)(C)C)C(=O)NS(=O)(=O)C1(C)CC1 [Compound 12a] center range

====

- Test system: HCV replicon A156T variant in Huh7 cells
- assay.info: microbe, parasite or virus in culture
- Type: cell-based, Hepatitis C virus
- condition.details: Hepatitis C virus, Huh-7, read-out: Replicon EC50 (nM) A156T, Table 9
observation.type: EC50 (nM)
Kindly answer with a numeric value in nM, unit omitted.

Name the value of EC50 reported for C=C[C@@H]1C[C@]1(NC(=O)[C@@H]1C[C@@H](Oc2nc3cc(OC)ccc3nc2Cl)CN1C(=O)[C@@H](NC(=O)OC1CCCC1)C(C)(C)C)C(=O)NS(=O)(=O)C1(C)CC1 [Compound 12d] when tested on HCV replicon A156T variant in Huh7 cells. 163

Please respond with reported EC50 (system HCV replicon A156T variant in Huh7 cells) for C=C[C@@H]1C[C@]1(NC(=O)[C@@H]1C[C@@H]2CN1C(=O)[C@H](C(C)(C)C)NC(=O)O[C@@H]1C[C@H]1CCCCCc1nc3ccc(OC)cc3nc1O2)C(=O)NS(=O)(=O)C1CC1 [Compound 1, grazoprevir, reference compound] . 200

Quote EC50 with test system HCV replicon A156T variant in Huh7 cells for C=C[C@@H]1C[C@]1(NC(=O)[C@@H]1C[C@@H](Oc2nc3cc(OC)ccc3nc2CC)CN1C(=O)[C@@H](NC(=O)OC(C)(C)C)C(C)(C)C)C(=O)NS(=O)(=O)C1CC1 [Compound 3] 73

Provide EC50, recorded with HCV replicon A156T variant in Huh7 cells, of C=C[C@@H]1C[C@]1(NC(=O)[C@@H]1C[C@@H](Oc2nc3cc(OC)ccc3nc2C)CN1C(=O)[C@@H](NC(=O)OC1CCCC1)C(C)(C)C)C(=O)NS(=O)(=O)C1CC1 [Compound 11b] 164

With HCV replicon A156T variant in Huh7 cells as the test system, provide measured EC50 for this compound: CCc1nc2ccc(OC)cc2nc1O[C@@H]1C[C@H]2C(=O)N[C@]3(C(=O)NS(=O)(=O)C4CC4)C[C@H]3/C=C\CCCCC[C@H](NC(=O)OC(C)(C)C)C(=O)N2C1 [Compound 2] 9.7

Fill in EC50 for C=C[C@@H]1C[C@]1(NC(=O)[C@@H]1C[C@@H](Oc2nc3cc(OC)ccc3nc2Cl)CN1C(=O)[C@@H](NC(=O)OC1CCCC1)C(C)(C)C)C(=O)NS(=O)(=O)C1CC1 [Compound 11d] tested with HCV replicon A156T variant in Huh7 cells. 292
